assayed.system: Adenosine receptor A2a (Rattus norvegicus, UniProt P30543)
Sequence (P30543 whole entry): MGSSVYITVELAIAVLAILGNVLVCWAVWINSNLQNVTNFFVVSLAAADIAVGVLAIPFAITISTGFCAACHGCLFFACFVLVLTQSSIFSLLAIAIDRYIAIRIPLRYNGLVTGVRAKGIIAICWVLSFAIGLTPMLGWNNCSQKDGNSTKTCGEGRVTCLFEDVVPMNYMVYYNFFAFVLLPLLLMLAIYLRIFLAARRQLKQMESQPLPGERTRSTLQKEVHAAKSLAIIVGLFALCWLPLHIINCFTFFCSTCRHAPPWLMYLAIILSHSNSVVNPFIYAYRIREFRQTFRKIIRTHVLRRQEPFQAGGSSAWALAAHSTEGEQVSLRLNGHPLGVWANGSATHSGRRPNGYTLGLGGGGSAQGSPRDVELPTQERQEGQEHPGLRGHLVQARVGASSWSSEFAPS
One threshold, 10 nM, splits the recorded Ki values: lower ones are Satisfied, equal or higher ones are Not satisfied.

>  <smiles.data>
Nc1nc2c(nnn2CCc2ccccc2)c2nc(-c3ccco3)nn12

>  <discrete.label>
Satisfied

$$$$
>  <smiles.data>
Nc1nc2nn(Cc3ccc(F)cc3)nc2c2nc(-c3ccco3)nn12

>  <discrete.label>
Satisfied

$$$$
>  <smiles.data>
Cn1ncc2c1nc(N)n1nc(-c3ccco3)nc21

>  <discrete.label>
Not satisfied

$$$$
>  <smiles.data>
Nc1nc2nn(CCc3ccccc3)cc2c2nc(-c3ccco3)nn12

>  <discrete.label>
Satisfied

$$$$
>  <smiles.data>
Nc1nc2c(nnn2Cc2cccc(F)c2)c2nc(-c3ccco3)nn12

>  <discrete.label>
Satisfied

$$$$
>  <smiles.data>
Nc1nc2c(nnn2Cc2ccc(F)cc2)c2nc(-c3ccco3)nn12

>  <discrete.label>
Not satisfied

$$$$

----------
In what follows, each item is paired with its Ki for UniProt P25099.
Sequence (P25099 whole entry): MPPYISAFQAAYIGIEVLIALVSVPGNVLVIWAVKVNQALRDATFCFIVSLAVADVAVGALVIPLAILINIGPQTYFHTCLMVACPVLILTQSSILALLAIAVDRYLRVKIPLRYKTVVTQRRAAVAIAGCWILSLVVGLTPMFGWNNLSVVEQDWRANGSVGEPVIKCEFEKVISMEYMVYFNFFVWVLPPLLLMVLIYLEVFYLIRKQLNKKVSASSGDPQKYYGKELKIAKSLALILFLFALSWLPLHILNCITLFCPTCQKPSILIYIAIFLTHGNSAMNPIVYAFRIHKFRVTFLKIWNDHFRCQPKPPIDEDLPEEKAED
measured.parameter: Ki (nM)

>  <smiles.data>
Nc1nc2c(nnn2Cc2ccccc2F)c2nc(-c3ccco3)nn12

>  <measured.parameter>
Ki

>  <unit.label>
nM

>  <observed.result>
13.7

$$$$
>  <smiles.data>
CC(C)CCn1cc2c(nc(N)n3nc(-c4ccco4)nc23)n1

>  <measured.parameter>
Ki

>  <unit.label>
nM

>  <observed.result>
5.6

$$$$
>  <smiles.data>
Nc1nc2nn(CCc3ccccc3)cc2c2nc(-c3ccco3)nn12

>  <measured.parameter>
Ki

>  <unit.label>
nM

>  <observed.result>
4.7

$$$$
>  <smiles.data>
Nc1nc2nn(Cc3ccc(F)cc3)cc2c2nc(-c3ccco3)nn12

>  <measured.parameter>
Ki

>  <unit.label>
nM

>  <observed.result>
3.3

$$$$

Entry source: ChEMBL document CHEMBL1127769
